Assay: refractive index (Na D-line) (dimensionless)
Conditions: 298.15 K; 101.33 kPa; Liquid; Standard Abbe refractometry

molecule: Cc1ccccc1 [toluene]
refractive index: 1.4941

molecule: Cc1cccc(C)c1 [1,3-dimethylbenzene]
refractive index: 1.4945

molecule: c1ccccc1 [benzene]
refractive index: 1.4979

molecule: Cc1cc(C)cc(C)c1 [1,3,5-trimethylbenzene]
refractive index: 1.4967

molecule: CCCCCCCC [octane]
refractive index: 1.395

====

Measured mass density of individual entries
Conditions: 328.15 K; 101 kPa; Liquid

smiles.structure: Cc1cc(C)cc(C)c1
mass density (kg/m3): 836.65

smiles.structure: Cc1cccc(C)c1
mass density (kg/m3): 834.13

smiles.structure: Cc1ccccc1
mass density (kg/m3): 834.29

smiles.structure: c1ccccc1
mass density (kg/m3): 841.49

====

Conditions: 308.15 K; 101 kPa; Liquid

smiles.structure: c1ccccc1
mass density / kg/m3: 863.01

smiles.structure: Cc1cccc(C)c1
mass density / kg/m3: 851.2

smiles.structure: Cc1ccccc1
mass density / kg/m3: 852.86

smiles.structure: Cc1cc(C)cc(C)c1
mass density / kg/m3: 852.89

====

A collection of compounds and their measured mass density
Conditions: 318.15 K; 101 kPa; Liquid
parameter: mass density (kg/m3)

smiles.structure: Cc1ccccc1
unit.descriptor: kg/m3
data.value: 843.6
//
smiles.structure: Cc1cc(C)cc(C)c1
unit.descriptor: kg/m3
data.value: 844.78
//
smiles.structure: c1ccccc1
unit.descriptor: kg/m3
data.value: 852.16
//
smiles.structure: Cc1cccc(C)c1
unit.descriptor: kg/m3
data.value: 842.66

====

Measured mass density by item
Conditions: 298.15 K; 101 kPa; Liquid
parameter: mass density (kg/m3)

molecule: Cc1ccccc1 [toluene]
parameter: mass density
unit.descriptor: kg/m3
data.value: 862.29
//
molecule: Cc1cccc(C)c1 [1,3-dimethylbenzene]
parameter: mass density
unit.descriptor: kg/m3
data.value: 859.85
//
molecule: Cc1cc(C)cc(C)c1 [1,3,5-trimethylbenzene]
parameter: mass density
unit.descriptor: kg/m3
data.value: 861.13
//
molecule: c1ccccc1 [benzene]
parameter: mass density
unit.descriptor: kg/m3
data.value: 873.62

The reported numbers originate from the NIST ThermoML archive (doi:10.1016/j.jct.2007.10.010).
